# measured-target: Sigma non-opioid intracellular receptor 1 (Cavia porcellus)
# assay-explanation: Inhibitory activity against sigma receptor isolated from guinea pig brain cortex membrane using [3H]DTG as radioligand
readout-type: pKi
Reminder that pKi means the negative base-10 logarithm of the concentration expressed in mol/L.

Ask | Retrieve pKi measured for `COc1cccc2c1CCC=C2CCCN1CCN(Cc2ccccc2)CC1` and print it.
Reply | 6.86

---

# assay-explanation: Inhibitory activity against 5-hydroxytryptamine 1A receptor isolated from rat hippocampus membranes membrane using [3H]5-HT as radioligand in the presence of 10e-6 M ketanserin as 5-HT2 blocker
readout-type: Ki

Ask | Answer with reported Ki of `COc1cccc2c1CCC=C2CCCN1CCN(Cc2ccccc2)CC1`
Reply | > 1430 nM
